Compiled record: pKi values for Carbonic anhydrase 9 (Homo sapiens, UniProt Q16790) across several sources.
Quick note: pKi values are minus log10 of concentrations in mol/L.

Please review the following examples before continuing.
Query block: Please report pKi for the following compound: NS(=O)(=O)c1ccc(-n2nnc(C(=O)O)c2-c2cccs2)cc1
Result block: 5.88

Query block: Please report pKi for the following compound: NS(=O)(=O)c1ccc(NCc2ccccc2O)cc1
Result block: 8.54

Query block: Please report pKi for the following compound: CCCn1c(S)nnc1-c1ccc(S(=O)(=O)c2ccccc2)cc1
Result block: 3.92

Query block: Please report pKi for the following compound: NS(=O)(=O)c1ccc(NC(=S)Nc2ccc(F)cc2)cc1
Result block: 7.49

Query block: Please report pKi for the following compound: O=c1cc(-c2cccc(Cl)c2)c2ccc(O)cc2o1
Result block: 7.51

Query block: Please report pKi for the following compound: CC(Nc1nc(NCc2ccc(S(N)(=O)=O)cc2)nc(NC(C)C(=O)O)n1)C(=O)O (racemic)
Result block: 8.07

Query block: Please report pKi for the following compound: Cc1cc(NS(=O)(=O)c2ccc(Nc3ccnc(SCC(=O)c4ccc(F)cc4)n3)cc2)no1
Result block: 4.04

Query block: Please report pKi for the following compound: Cc1c(CC(=O)O)c(=O)oc2cc3occ(-c4ccc(Cl)cc4)c3cc12
Result block: 7.02

More entries:
Query block: Please report pKi for the following compound: NS(=O)(=O)c1ccc(-c2no[n+]([O-])c2-c2ccccc2)cc1
Result block: 7.20

Query block: Please report pKi for the following compound: N#Cc1ccc(CN2C(=O)/C(=N\c3ccc(NC(=O)Nc4ccc(S(N)(=O)=O)cc4)cc3)c3cc(Br)ccc32)cc1
Result block: 7.43

Query block: Please report pKi for the following compound: NS(=O)(=O)c1ccc(N2C(=O)CSC2c2cccc(Br)c2)cc1 (stereo not drawn)
Result block: 7.71

Query block: Please report pKi for the following compound: Cc1cc(NS(=O)(=O)c2ccc(Nc3ccnc(SCC(=O)c4ccc(Cl)cc4)n3)cc2)no1
Result block: 5.05

###

Compiled record: pKi values for UniProt:Q16790 across several sources.
Quick note: pKi values are minus log10 of concentrations in mol/L.

Please review the following examples before continuing.
Query block: // fetch pKi for NS(=O)(=O)c1ccc(C(=O)N2CCN(C(=O)c3ccccc3[N+](=O)[O-])CC2)cc1 ; system: UniProt:Q16790
Result block: 8.01

Query block: // fetch pKi for COc1ccc(NC(=O)c2ccc3c(c2)C(=O)N(c2ccc(C(=O)O)cc2)C3=O)c(C(=O)O)c1 ; system: UniProt:Q16790
Result block: 6.14

Query block: // fetch pKi for NS(=O)(=O)c1ccc(-c2nonc2-c2ccccc2)cc1 ; system: UniProt:Q16790
Result block: 7.20

Query block: // fetch pKi for CC(=O)Oc1ccccc1C(=O)Nc1ccc([Se]Cc2ccc(S(N)(=O)=O)cc2)cc1 ; system: UniProt:Q16790
Result block: 6.15

Query block: // fetch pKi for CCOC(=O)c1ccc(NC(=O)CS(=O)(=O)c2ccccc2)cc1 ; system: UniProt:Q16790
Result block: 4.76

More entries:
Query block: // fetch pKi for CCCCCCCCCCCOS(N)(=O)=O ; system: UniProt:Q16790
Result block: 7.77

Query block: // fetch pKi for COc1cc2ccc(=O)oc2cc1O ; system: UniProt:Q16790
Result block: 6.02

###

Compiled record: Ki values for Carbonic anhydrase 9 (Homo sapiens) across several sources.
Respond with the bare value in µM.

Query block: // fetch Ki for NS(=O)(=O)c1ccc(-n2ncc(Cl)c(Cl)c2=O)cc1 ; system: Carbonic anhydrase 9 (Homo sapiens)
Result block: 0.0087

Query block: // fetch Ki for NS(=O)(=O)c1ccc(-n2cc(COC3OC[C@@H](O)[C@@H](O)[C@@H]3O)nn2)cc1 (stereo not given in full) ; system: Carbonic anhydrase 9 (Homo sapiens)
Result block: 0.103

Query block: // fetch Ki for COc1ccc(-c2nn3c(-c4ccc(S(N)(=O)=O)cc4)nnc3s2)cc1 ; system: Carbonic anhydrase 9 (Homo sapiens)
Result block: 0.431

Query block: // fetch Ki for NS(=O)(=O)c1ccc(N/N=C/c2ccc(N3CCCC3)cc2)cc1 ; system: Carbonic anhydrase 9 (Homo sapiens)
Result block: 0.0194

Query block: // fetch Ki for N/C(=N\S(=O)(=O)c1ccccc1SCc1ccc(C(F)(F)F)cc1)NNc1nc(Cl)nc(Nc2cccc(S(N)(=O)=O)c2)n1 ; system: Carbonic anhydrase 9 (Homo sapiens)
Result block: 0.421

More entries:
Query block: // fetch Ki for CC(C)CC(=O)OC[C@H]1O[C@@H](n2cc(-c3ccc(S(N)(=O)=O)cc3)nn2)[C@H](OC(=O)CC(C)C)[C@@H](OC(=O)CC(C)C)[C@@H]1OC(=O)CC(C)C ; system: Carbonic anhydrase 9 (Homo sapiens)
Result block: 0.426

Query block: // fetch Ki for C/C(=N\Nc1ccc(S(N)(=O)=O)cc1)c1cc2cc(Br)ccc2oc1=O ; system: Carbonic anhydrase 9 (Homo sapiens)
Result block: 0.0236

Query block: // fetch Ki for CC(=O)N1N=C(c2cccc(OS(N)(=O)=O)c2)CC1c1cc(Cl)ccc1Cl (stereo not given) ; system: Carbonic anhydrase 9 (Homo sapiens)
Result block: 0.0589

###

Compiled record: pKi values for UniProt:Q16790 across several sources.
pKi: −log10 of the molar value.
Label scheme for pKi: lower than 7 is Not satisfied, 7 and above is Satisfied.

# example entries with known answers
Query block: Reported pKi reaches at least 7 for Cc1cc(=O)oc2cc(-n3cc(COc4ccccc4)nn3)ccc12 ?
Result block: Satisfied

Query block: Reported pKi reaches at least 7 for CCOC(=O)c1cc(-c2ccc(C)cc2)n(-c2ccc(S(N)(=O)=O)cc2)n1 ?
Result block: Not satisfied

Query block: Reported pKi reaches at least 7 for CC(C)C[C@H](NC(=O)[C@H](CO)NC(=O)/C=N/OCc1ccc(S(N)(=O)=O)cc1)C(N)=O ?
Result block: Not satisfied

Query block: Reported pKi reaches at least 7 for CC(C(=O)Nc1ccc(S(N)(=O)=O)cc1)N1CCCC(C(=O)N/N=C2\C(=O)Nc3cc(F)ccc32)C1 (centres undefined) ?
Result block: Satisfied

Query block: Reported pKi reaches at least 7 for CN1C(=O)NS(=O)(=O)c2cc(Cl)ccc21 ?
Result block: Not satisfied

More entries:
Query block: Reported pKi reaches at least 7 for NS(=O)(=O)c1ccc(C(=O)N2CCCCCC2)cc1 ?
Result block: Satisfied

Query block: Reported pKi reaches at least 7 for COc1ccc2c(c1)NC(=O)C2=NNC(=O)C1CCCN(C(C)C(=O)Nc2ccc(S(N)(=O)=O)cc2)C1 (centres undefined) ?
Result block: Satisfied

###

Compiled record: pKi values for Carbonic anhydrase 9 (Homo sapiens) across several sources.
Quick note: pKi values are minus log10 of concentrations in mol/L.

Query block: // fetch pKi for Cc1c(NC(=O)Nc2ccccc2C(=O)O)oc2ccccc12 ; system: Carbonic anhydrase 9 (Homo sapiens)
Result block: 5.80

More entries:
Query block: // fetch pKi for COc1cc(/C=C/C(=O)Nc2ccc(S(N)(=O)=O)cc2)cc(OC)c1OC ; system: Carbonic anhydrase 9 (Homo sapiens)
Result block: 6.90

Query block: // fetch pKi for NS(=O)(=O)c1cccc(/N=C/c2ccc(/C=N/c3cccc(S(N)(=O)=O)c3)cc2)c1 ; system: Carbonic anhydrase 9 (Homo sapiens)
Result block: 5.83

Query block: // fetch pKi for NS(=O)(=O)c1ccc(Nc2cc(-c3ccccc3)nc(SCC(=O)c3ccc(Br)cc3)n2)cc1 ; system: Carbonic anhydrase 9 (Homo sapiens)
Result block: 6.49

Query block: // fetch pKi for NS(=O)(=O)c1ccc(NC(=O)Nc2nc(Nc3ccc(Cl)c(Cl)c3)nc(N3CCOCC3)n2)cc1 ; system: Carbonic anhydrase 9 (Homo sapiens)
Result block: 6.98

Query block: // fetch pKi for CC1(C)O[C@@H]2[C@@H](CO[C@@]3(CNC(=S)Nc4ccc(S(N)(=O)=O)cc4Cl)OC(C)(C)O[C@@H]23)O1 ; system: Carbonic anhydrase 9 (Homo sapiens)
Result block: 6.87

Query block: // fetch pKi for CC(=O)c1c(O)c2cc(Br)ccc2oc1=O ; system: Carbonic anhydrase 9 (Homo sapiens)
Result block: 8.09

Query block: // fetch pKi for COc1cc(/C=C/C(=O)OCCc2ccc(O)cc2)ccc1O ; system: Carbonic anhydrase 9 (Homo sapiens)
Result block: 6.09

Query block: // fetch pKi for O=C(N/N=C/c1ccc([N+](=O)[O-])cc1)Nc1n[nH]c(=S)s1 ; system: Carbonic anhydrase 9 (Homo sapiens)
Result block: 5.00

Query block: // fetch pKi for NS(=O)(=O)c1ccc(C(=O)N2CCc3cc(O)c(O)cc3C2c2ccc(Br)cc2)cc1 (racemic) ; system: Carbonic anhydrase 9 (Homo sapiens)
Result block: 7.09

Query block: // fetch pKi for NS(=O)(=O)c1ccc(-n2cc(COC(=O)c3ccc4c(c3)C(=O)N(c3cccc5ccccc35)C4=O)nn2)cc1 ; system: Carbonic anhydrase 9 (Homo sapiens)
Result block: 7.60

Query block: // fetch pKi for Cc1cc(C)c2cc(S(N)(=O)=O)c(=O)oc2c1 ; system: Carbonic anhydrase 9 (Homo sapiens)
Result block: 6.08

Query block: // fetch pKi for NS(=O)(=O)c1ccc(/N=C2\NC(=O)/C(=C3/C(=O)Nc4ccc(Cl)cc43)S2)cc1 ; system: Carbonic anhydrase 9 (Homo sapiens)
Result block: 7.20

Query block: // fetch pKi for CN1CCN(NC(=S)S)CC1 ; system: Carbonic anhydrase 9 (Homo sapiens)
Result block: 7.66

Query block: // fetch pKi for COC(=O)C1=Cc2ccc(C)cc2OC(=O)C1 ; system: Carbonic anhydrase 9 (Homo sapiens)
Result block: 6.77

Query block: // fetch pKi for O=C(O)COn1c(=O)[nH]c2cc(Cl)c([N+](=O)[O-])cc2c1=O ; system: Carbonic anhydrase 9 (Homo sapiens)
Result block: 7.74

Query block: // fetch pKi for CCOP(=O)(OCC)C(Nc1ccc(S(N)(=O)=O)cc1)c1c(Br)cccc1OC (stereo unspecified) ; system: Carbonic anhydrase 9 (Homo sapiens)
Result block: 6.46

Query block: // fetch pKi for COc1ccc2c(c1)NC(=O)C2=NNC(=O)C1CCCN(CC(=O)Nc2ccc(S(N)(=O)=O)cc2)C1 (stereo unspecified) ; system: Carbonic anhydrase 9 (Homo sapiens)
Result block: 7.72

Query block: // fetch pKi for O=C(NCCc1ccc(O)c(O)c1)c1cc2cc(O)c(O)cc2[nH]1 ; system: Carbonic anhydrase 9 (Homo sapiens)
Result block: 4.82

Query block: // fetch pKi for O=C(Nc1nnc(S)s1)N(c1ccccc1)c1ccccc1 ; system: Carbonic anhydrase 9 (Homo sapiens)
Result block: 3.57
